Data provenance: the supplement of paper PMC8183993

Exercise: for every item that follows, state its recorded mean HPG incorporation.
- Test system: U2OS
- PROTOCOL_SUMMARY: mean HPG incorporation (global translation) relative to DMSO (% of DMSO); higher = more protein synthesis
- CONDITIONS_USED: 10 µM; 24 h
Structures can show the parent of a compound that is named as a salt.
Reply with the value as a number alone.

## Input Recorded mean HPG incorporation of "CC(C)n1nc(-c2cc3cc(O)ccc3[nH]2)c2c(N)ncnc21" , please.
## Output 30.9

## Input Now the same for N#CC(c1ccnc(NCCc2cccnc2)n1)c1nc2ccccc2s1 (configuration not stated)
## Output 85.5

## Input Lookup "Cn1cc(-c2ccc3ncc(Cc4ccc5ncccc5c4)n3n2)cn1"
## Output 138

## Input Another molecule to look at: "CC[C@@H]1/C=C(\C)C[C@H](C)C[C@H](OC)[C@H]2O[C@@](O)(C(=O)C(=O)N3CCCC[C@H]3C(=O)O[C@H](/C(C)=C/[C@@H]3CC[C@H](Cl)[C@H](OC)C3)[C@H](C)[C@@H](O)CC1=O)[C@H](C)C[C@@H]2OC"
## Output 99.6

## Input Request: "Cc1c(CN2CCN(C(=O)[C@H](C)O)CC2)sc2c(N3CCOCC3)nc(-c3cnc(N)nc3)nc12"
## Output 41.4

## Input What would you report for "CCn1c(-c2nonc2N)nc2cnc(Oc3cccc(NC(=O)c4ccc(OCCN5CCOCC5)cc4)c3)cc21" ?
## Output 76.4

## Input # repeat for Cc1c(-c2ccc(O)cc2)n(Cc2ccc(OCCN3CCCCCC3)cc2)c2ccc(O)cc12 [Bazedoxifene HCl]
## Output 85.2

###

- Test system: U2OS
- PROTOCOL_SUMMARY: nuclei count in HPG assay relative to DMSO (% of DMSO); higher = more viable cells
- CONDITIONS_USED: 1 µM; 24 h
MEASURED_METRIC: nuclei count in HPG assay

## Input Query nuclei count in HPG assay on U2OS for "CC(C)n1nc(-c2ccc3oc(N)nc3c2)c2c(N)ncnc21"
## Output 76

## Input Please do the same for "CCn1c(-c2nonc2N)nc2cnc(Oc3cccc(NC(=O)c4ccc(OCCN5CCOCC5)cc4)c3)cc21" as well.
## Output 99

## Input // query: "O=C(Nc1ccc(OC(F)(F)F)cc1)c1sccc1NCc1ccnc2ccccc12"
## Output 96.9

## Input Queued: "Cn1cc(-c2ccc3ncc(Cc4ccc5ncccc5c4)n3n2)cn1"
## Output 107

## Input Input "COc1cc(COc2cc(N)c(Cl)cc2C(=O)CCC2CCN(CCNS(C)(=O)=O)CC2)cc(OC)c1"
## Output 100

## Input Same thing, different compound: "COc1cc(C)c(/C=C/C(C)=C/C=C/C(C)=C/C(=O)O)c(C)c1C"
## Output 91.8

## Input Next record, please: "CC[C@@H]1/C=C(\C)C[C@H](C)C[C@H](OC)[C@H]2O[C@@](O)(C(=O)C(=O)N3CCCC[C@H]3C(=O)O[C@H](/C(C)=C/[C@@H]3CC[C@H](Cl)[C@H](OC)C3)[C@H](C)[C@@H](O)CC1=O)[C@H](C)C[C@@H]2OC"
## Output 103

## Input # iterate: "CCCc1cc(C)[nH]c(=O)c1CNC(=O)c1cc(-c2ccc(N3CCN(C(C)C)CC3)nc2)cc2c1cnn2C(C)C"
## Output 93.7

## Input Also need "CC(C)n1nc(-c2cc3cc(O)ccc3[nH]2)c2c(N)ncnc21" , thanks.
## Output 96.6

## Input How about N#CC(c1ccnc(NCCc2cccnc2)n1)c1nc2ccccc2s1 (configuration not stated) ?
## Output 105

## Input Note, next up: CC1=C(/C=C/C(C)=C/C=C/C(C)=C/C(=O)Nc2ccc(O)cc2)C(C)(C)CCC1 [Fenretinide]
## Output 102

## Input Thanks! And "CCC(=O)CCCCC[C@@H]1NC(=O)[C@H]2CCCCN2C(=O)[C@H]([C@@H](C)CC)NC(=O)[C@H](Cc2cn(OC)c3ccccc23)NC1=O" ?
## Output 108

###

Please respond with reported mean OPP incorporation for every item in the list.
- Test system: U2OS
- PROTOCOL_SUMMARY: mean OPP incorporation (global translation) relative to DMSO (% of DMSO); higher = more protein synthesis
- CONDITIONS_USED: 10 µM; 24 h
Counter-ions that a name gives are not always drawn.

## Input Provide the documented mean OPP incorporation with U2OS as the system for "CC(C)n1nc(-c2ccc3oc(N)nc3c2)c2c(N)ncnc21"
## Output 30

## Input Consider next the compound "CCC(=O)CCCCC[C@@H]1NC(=O)[C@H]2CCCCN2C(=O)[C@H]([C@@H](C)CC)NC(=O)[C@H](Cc2cn(OC)c3ccccc23)NC1=O" in the same way.
## Output 55.8

## Input Next: "COc1ccccc1S(=O)(=O)Nc1ccc2c(c1)CN(C)C(=O)N2"
## Output 45.9

## Input Next compound: "Oc1ccc(Nc2nc(-c3ccc(Cl)cc3)cs2)cc1"
## Output 69.5

## Input Another compound: "Cc1c(CN2CCN(C(=O)[C@H](C)O)CC2)sc2c(N3CCOCC3)nc(-c3cnc(N)nc3)nc12"
## Output 35.4

## Input Please give the result for "Cc1cn(-c2cc(NC(=O)c3ccc(C)c(Nc4nccc(-c5cccnc5)n4)c3)cc(C(F)(F)F)c2)cn1" too.
## Output 116

## Input Repeat for the following compound: "Cc1cc(CS(=O)(=O)c2ccccc2)cc(OCc2ccc(CN3CCC[C@@H]3CO)cc2)c1"
## Output 130

## Input Try this compound too: COc1ccccc1N1CCN(CCN2C(=O)c3ccccc3C(C)(C)C2=O)CC1 [ARC 239 dihydrochloride]
## Output 120

## Input Can you check O=[N+]([O-])c1ccccc1S(=O)(=O)NCC1CCC(CNCC2CCc3ccccc3C2)CC1 (stereo unspecified) [NTNCB hydrochloride] next?
## Output 110

## Input Also Cc1ccc(NC(=O)c2ccc(CN3CCN(C)CC3)cc2)cc1Nc1nccc(-c2cccnc2)n1 [Imatinib (STI571)] , if possible.
## Output 131

## Input Also "COc1nc(-c2ccc3c(c2)OCO3)n(-c2ccc(NC(=O)CSc3ccccc3)cc2)n1" ?
## Output 121

## Input Please give the result for "O=c1cc(N2CCOCC2)oc2c(-c3cccc4c3sc3ccccc34)cccc12" too.
## Output 104

## Input Then what about the compound "CC(=O)O[C@@H]1C[C@H]2C(C)(C)C(=O)C=C[C@]2(C)[C@H]2CC[C@@]3(C)[C@H](c4ccoc4)OC(=O)[C@H]4O[C@]43[C@@]21C" ?
## Output 115

## Input Proceed to Cc1c(-c2ccc(O)cc2)n(Cc2ccc(OCCN3CCCCCC3)cc2)c2ccc(O)cc12 [Bazedoxifene HCl]
## Output 133

## Input // repeat for "CC(C)(C)c1nc(-c2cccc(NS(=O)(=O)c3c(F)cccc3F)c2F)c(-c2ccnc(N)n2)s1" and report
## Output 114

## Input Now consider CCN(CC)CCOc1ccc(C(=C(Cl)c2ccccc2)c2ccccc2)cc1 [Clomiphene citrate (Z,E)] .
## Output 136

###

- System: U2OS
- PROTOCOL_SUMMARY: mean OPP incorporation (global translation) relative to DMSO (% of DMSO); higher = more protein synthesis
- CONDITIONS_USED: 3 µM; 24 h
Counter-ions that a name gives are not always drawn.
MEASURED_METRIC: mean OPP incorporation
# answer = number (no unit)

## Input May I ask what mean OPP incorporation has been recorded for "Cc1c(CN2CCN(C(=O)[C@H](C)O)CC2)sc2c(N3CCOCC3)nc(-c3cnc(N)nc3)nc12" ?
## Output 35.8

## Input Same again, this time with "C[C@@H]1CN(CC(=O)Nc2ccc3c(c2)Cc2cccc(-c4cc(=O)cc(N5CCOCC5)o4)c2S3)C[C@H](C)O1"
## Output 108

## Input And the next one, "CC(=O)O[C@@H]1C[C@H]2C(C)(C)C(=O)C=C[C@]2(C)[C@H]2CC[C@@]3(C)[C@H](c4ccoc4)OC(=O)[C@H]4O[C@]43[C@@]21C" ?
## Output 114

## Input What do you have for "C=CC[C@@H]1/C=C(\C)C[C@H](C)C[C@H](OC)[C@H]2O[C@@](O)(C(=O)C(=O)N3CCCC[C@H]3C(=O)O[C@H](/C(C)=C/[C@@H]3CC[C@@H](O)[C@H](OC)C3)[C@H](C)[C@@H](O)CC1=O)[C@H](C)C[C@@H]2OC" ?
## Output 123

## Input And what about the molecule "COc1cc(COc2cc(N)c(Cl)cc2C(=O)CCC2CCN(CCNS(C)(=O)=O)CC2)cc(OC)c1" ?
## Output 122

## Input Lookup CC1=C(/C=C/C(C)=C/C=C/C(C)=C/C(=O)Nc2ccc(O)cc2)C(C)(C)CCC1 [Fenretinide]
## Output 109

## Input Entry to check: Cc1ccc(NC(=O)c2ccc(CN3CCN(C)CC3)cc2)cc1Nc1nccc(-c2cccnc2)n1 [Imatinib (STI571)]
## Output 122

## Input # repeat for "Cn1cc(-c2ccc3ncc(Cc4ccc5ncccc5c4)n3n2)cn1"
## Output 107

## Input Okay, and C[C@]12CC[C@@H]3c4ccc(O)cc4C[C@@H](CCCCCCCCC[S+]([O-])CCCC(F)(F)C(F)(F)F)[C@H]3[C@@H]1CC[C@@H]2O (stereo partly specified) ?
## Output 123

## Input Next molecule: "CCCc1cc(C)[nH]c(=O)c1CNC(=O)c1cc(-c2ccc(N3CCN(C(C)C)CC3)nc2)cc2c1cnn2C(C)C"
## Output 119

## Input Check CCN(CC)CCOc1ccc(C(=C(Cl)c2ccccc2)c2ccccc2)cc1 [Clomiphene citrate (Z,E)] too.
## Output 124
